Values from ChEMBL document CHEMBL1134787

The entries below come with measured IC50 values attached.
Molecular target: Thymidylate synthase (Mus musculus, UniProt P07607)
Sequence (P07607 whole entry): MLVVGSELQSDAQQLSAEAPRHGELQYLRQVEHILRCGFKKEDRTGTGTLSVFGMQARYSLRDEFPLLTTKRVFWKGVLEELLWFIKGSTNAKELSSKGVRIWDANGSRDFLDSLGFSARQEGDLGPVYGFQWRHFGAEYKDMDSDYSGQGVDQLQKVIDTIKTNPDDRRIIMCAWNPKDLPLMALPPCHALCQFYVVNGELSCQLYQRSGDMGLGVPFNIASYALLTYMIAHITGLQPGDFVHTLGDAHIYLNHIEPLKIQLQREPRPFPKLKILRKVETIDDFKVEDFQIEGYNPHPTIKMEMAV
Experiment: Thymidylate synthase inhibition in L1210 mouse leukemia cells after 2 hr treatment
Type: cell-based
Numeric only. Scale: nM

Guide cases for IC50, answers given:
[
  {
    "COMPOUND": "CN(CCCCCl)P(=O)(OCC1=CC(=O)c2ccccc2C1=O)OC[C@H]1O[C@@H](n2cc(F)c(=O)[nH]c2=O)C[C@@H]1O (stereo partly drawn)",
    "STUDY_TARGET": "Thymidylate synthase (Mus musculus, UniProt P07607)",
    "IC50 (nM)": 10
  },
  {
    "COMPOUND": "CN(CCCCCl)P(=O)(OCc1ccc([N+](=O)[O-])o1)OC[C@H]1O[C@@H](n2cc(F)c(=O)[nH]c2=O)C[C@@H]1O (stereo partly drawn)",
    "STUDY_TARGET": "Thymidylate synthase (Mus musculus, UniProt P07607)",
    "IC50 (nM)": 65
  }
]

Now let's try a different one.
Ask: What value of IC50 has been recorded for this entry: O=c1[nH]c(=O)n([C@H]2C[C@H](O)[C@@H](CO)O2)cc1F
Result: 7.9

* * *

The entries below come with measured IC50 values attached.
Target: Thymidylate synthase (Mus musculus, UniProt P07607)
Test: Thymidylate synthase inhibition in thymidine kinase deficient /TK cells after 2 hr treatment
Numeric only. Scale: nM

[
  {
    "COMPOUND": "O=c1[nH]c(=O)n([C@H]2C[C@H](O)[C@@H](CO)O2)cc1F",
    "STUDY_TARGET": "Thymidylate synthase (Mus musculus, UniProt P07607)",
    "IC50 [nM]": 20
  }
]

Ask: What value of IC50 has been recorded for this entry: CN(CCCCCl)P(=O)(OCc1ccc([N+](=O)[O-])o1)OC[C@H]1O[C@@H](n2cc(F)c(=O)[nH]c2=O)C[C@@H]1O (stereo partly drawn)
Result: 1.9

Ask: What value of IC50 has been recorded for this entry: CN(CCCCCl)P(=O)(OCC1=CC(=O)c2ccccc2C1=O)OC[C@H]1O[C@@H](n2cc(F)c(=O)[nH]c2=O)C[C@@H]1O (stereo partly drawn)
Result: 25

* * *

Molecular target: Thymidylate synthase (Mus musculus, UniProt P07607)
Experiment: Thymidylate synthase inhibition in wild type LM cells after 2 hr treatment
Assay type: cell-based
ENDPOINT_LABEL: IC50 (nM)
Numeric only. Scale: nM

Ask: What value of IC50 has been recorded for this entry: O=c1[nH]c(=O)n([C@H]2C[C@H](O)[C@@H](CO)O2)cc1F
Result: 260

Ask: What value of IC50 has been recorded for this entry: CN(CCCCCl)P(=O)(OCC1=CC(=O)c2ccccc2C1=O)OC[C@H]1O[C@@H](n2cc(F)c(=O)[nH]c2=O)C[C@@H]1O (stereo partly drawn)
Result: 230

Ask: What value of IC50 has been recorded for this entry: CN(CCCCCl)P(=O)(OCc1ccc([N+](=O)[O-])o1)OC[C@H]1O[C@@H](n2cc(F)c(=O)[nH]c2=O)C[C@@H]1O (stereo partly drawn)
Result: 560

* * *

Test system: L1210
Assay: Growth inhibition in L1210 mouse leukemia cells after 2 hr treatment
Assay type: functional, cell-based
Settings: L1210, 2 h
The entries below come with measured IC50 values attached.
Numeric only. Scale: nM

Guide cases for IC50, answers given:
[
  {
    "COMPOUND": "CN(CCBr)P(=O)(OCc1ccc([N+](=O)[O-])o1)OC[C@H]1O[C@@H](n2cc(F)c(=O)[nH]c2=O)C[C@@H]1O (stereo not given in full)",
    "IC50, nM": 1030
  },
  {
    "COMPOUND": "O=c1[nH]cc(F)c(=O)[nH]1 [FLUOROURACIL]",
    "IC50, nM": 2500
  },
  {
    "COMPOUND": "CN(CCCCCl)P(=O)(OCc1ccc([N+](=O)[O-])o1)OC[C@H]1O[C@@H](n2cc(F)c(=O)[nH]c2=O)C[C@@H]1O (stereo not given in full)",
    "IC50, nM": 116
  }
]

Ask: Which measured IC50 belongs to CN(CCCCCl)P(=O)(OCC1=CC(=O)c2ccccc2C1=O)OC[C@H]1O[C@@H](n2cc(F)c(=O)[nH]c2=O)C[C@@H]1O (stereo not given in full) , tested on L1210?
Result: 44

Ask: Which measured IC50 belongs to O=c1[nH]c(=O)n([C@H]2C[C@H](O)[C@@H](CO)O2)cc1F [FLOXURIDINE] , tested on L1210?
Result: 45
